Reference source: patent US10308689B2

tested on: PBMC of healthy adult blood donors from Colombo, Sri Lanka; assay: Ex vivo IFNγ ELISPOT, HLA-matched PBMC of Sri Lankan blood donors; type: cell-based, human; conditions: number of donors responding to the epitope; HLA-matched PBMC, proteome-wide screen
# donors responded overview
Response field accepts a number only; no unit should be typed.

chemical.structure | property.name | quantitative.readout
CC[C@H](C)[C@H](NC(=O)[C@@H](NC(=O)[C@@H](NC(=O)[C@H](CC(N)=O)NC(=O)[C@H](Cc1c[nH]c2ccccc12)NC(=O)[C@H](Cc1ccccc1)NC(=O)[C@H](CCCCN)NC(=O)CNC(=O)[C@@H]1CCCN1C(=O)[C@@H](N)CO)[C@@H](C)O)[C@@H](C)O)C(=O)O | # donors responded | 3

Task item: # get_value(readout='# donors responded', item= CSCC[C@H](NC(=O)[C@H](CCC(N)=O)NC(=O)[C@H](C)NC(=O)[C@@H](N)Cc1ccc(O)cc1)C(=O)N[C@@H](Cc1c[nH]c2ccccc12)C(=O)N[C@@H](CO)C(=O)N[C@@H](CC(C)C)C(=O)N[C@@H](CCSC)C(=O)N[C@@H](Cc1ccc(O)cc1)C(=O)N[C@@H](Cc1ccccc1)C(=O)O )
Reply: 1

Task item: # get_value(readout='# donors responded', item= CSCC[C@H](NC(=O)[C@H](Cc1ccccc1)NC(=O)[C@@H](NC(=O)[C@@H]1CCCN1C(=O)[C@@H](N)CC(C)C)[C@@H](C)O)C(=O)N[C@H](C(=O)N[C@@H](CCC(N)=O)C(=O)N[C@@H](CCCCN)C(=O)N[C@@H](C)C(=O)N[C@@H](CCCNC(=N)N)C(=O)O)[C@@H](C)O )
Reply: 8

Task item: # get_value(readout='# donors responded', item= CC(C)C[C@H](NC(=O)[C@H](CO)NC(=O)CNC(=O)[C@H](CS)NC(=O)[C@H](Cc1c[nH]c2ccccc12)NC(=O)[C@H](CCC(N)=O)NC(=O)[C@H](CC(=O)O)NC(=O)[C@H](CCC(=O)O)NC(=O)[C@@H](N)CCCNC(=N)N)C(=O)O )
Reply: 1

Task item: # get_value(readout='# donors responded', item= CSCC[C@H](N)C(=O)N1CCC[C@H]1C(=O)N[C@H](C(=O)N[C@H](C(=O)N[C@@H](Cc1c[nH]cn1)C(=O)N[C@@H](CO)C(=O)N[C@@H](CO)C(=O)N[C@@H](C)C(=O)N[C@@H](C)C(=O)N[C@@H](CCC(N)=O)C(=O)O)[C@@H](C)O)C(C)C )
Reply: 2

Task item: # get_value(readout='# donors responded', item= CC[C@H](C)[C@H](NC(=O)[C@@H](NC(=O)[C@@H]1CCCN1C(=O)[C@@H](N)CO)[C@@H](C)CC)C(=O)N[C@@H](CC(N)=O)C(=O)N[C@@H](CCCNC(=N)N)C(=O)N[C@@H](CCC(=O)O)C(=O)NCC(=O)N[C@@H](CCCCN)C(=O)N[C@H](C(=O)O)C(C)C )
Reply: 1

====

system: PBMC of healthy adult blood donors from Colombo, Sri Lanka; experiment: Ex vivo IFNγ ELISPOT, HLA-matched PBMC of Sri Lankan blood donors; assay type: cell-based, human; design: unit not given here; settings: total over responding donors; restricting HLA allele and serotype as given
Ends that are not written are not given here.
property.name: Total Response per epitope
Response field accepts a number only; no unit should be typed.

residue.codes | quantitative.readout
ATGPITTLW | 505.0
TLMAAILAY | 43.3
IANQAAILM | 58.3
ATGPVLTLW | 390.0
EERDIPERSW | 133.3
GEFRLRGEQR | 1373.3

Task item: Tell me reported Total Response per epitope for DPRRCLKPV , tested with PBMC of healthy adult blood donors from Colombo, Sri Lanka.
Reply: 556.7

Task item: Tell me reported Total Response per epitope for GPLVAGGLL , tested with PBMC of healthy adult blood donors from Colombo, Sri Lanka.
Reply: 748.3

Task item: Tell me reported Total Response per epitope for IGIGVLLTW , tested with PBMC of healthy adult blood donors from Colombo, Sri Lanka.
Reply: 378.3

Task item: Tell me reported Total Response per epitope for GFFLRKLTSR , tested with PBMC of healthy adult blood donors from Colombo, Sri Lanka.
Reply: 81.7

Task item: Tell me reported Total Response per epitope for DPASIAARGY , tested with PBMC of healthy adult blood donors from Colombo, Sri Lanka.
Reply: 2383.3
